Recorded values, source ChEMBL document CHEMBL2010675.

test: Clearance in dog at 1 mg/kg, iv and 4 mg/kg, po; type: ADME, organism-based, Canis lupus familiaris; conditions: in vivo
Reported clearance by item:
Note: unit mL/min/kg is implicit; provide only the numeric part.

Study these solved cases before continuing.
Compound: CC[C@@H]1C[C@]1(NC(=O)[C@@H]1C[C@@H](Oc2cc(-c3csc(NC(C)C)n3)nc3c(Cl)c(OCCN4CCOCC4(C)C)ccc23)CN1C(=O)[C@@H](NC(=O)O[C@@H]1C[C@@H]2C[C@@H]2C1)C(C)(C)C)C(=O)O
clearance, mL/min/kg: 0.5
//
Compound: CC[C@@H]1C[C@]1(NC(=O)[C@@H]1C[C@@H](Oc2cc(-c3csc(NC(C)C)n3)nc3c(Cl)c(OCCN4CC[C@@H](OC)C4)ccc23)CN1C(=O)[C@@H](NC(=O)O[C@@H]1C[C@@H]2C[C@@H]2C1)C(C)(C)C)C(=O)O
clearance, mL/min/kg: 3.67
//
Compound: CC[C@@H]1C[C@]1(NC(=O)[C@@H]1C[C@@H](Oc2cc(-c3csc(NC(C)C)n3)nc3c(Cl)c(OCCN4CCCCC4)ccc23)CN1C(=O)[C@@H](NC(=O)O[C@@H]1C[C@@H]2C[C@@H]2C1)C(C)(C)C)C(=O)O
clearance, mL/min/kg: 2.17

// below: clearance requested for another compound
Could you tell me which clearance is on file for CC[C@@H]1C[C@]1(NC(=O)[C@@H]1C[C@@H](Oc2cc(-c3csc(NC(C)C)n3)nc3c(Cl)c(OCCN4CCOCC4)ccc23)CN1C(=O)[C@@H](NC(=O)O[C@@H]1C[C@@H]2C[C@@H]2C1)C(C)(C)C)C(=O)O [VEDROPREVIR] ?
4.33

----------
experiment: Fraction unbound in dog plasma; type: ADME, cell-free, Canis lupus familiaris
Property label: fraction unbound

Which fraction unbound value is on record for CC[C@@H]1C[C@]1(NC(=O)[C@@H]1C[C@@H](Oc2cc(-c3csc(NC(C)C)n3)nc3c(Cl)c(OCCN4CCOCC4)ccc23)CN1C(=O)[C@@H](NC(=O)O[C@@H]1C[C@@H]2C[C@@H]2C1)C(C)(C)C)C(=O)O ?
0.026

----------
tested on: Cynomolgus monkey; test: AUC in cynomolgus monkey at 4 mg/kg, po; assay type: ADME, organism-based, Macaca fascicularis, Plasma; set-up: dose 4 mg/kg, route oral; conditions: in vivo
Property label: AUC
Number first, unit second.

Given the compound CC[C@@H]1C[C@]1(NC(=O)[C@@H]1C[C@@H](Oc2cc(-c3csc(NC(C)C)n3)nc3c(Cl)c(OCCN4CCOCC4)ccc23)CN1C(=O)[C@@H](NC(=O)O[C@@H]1C[C@@H]2C[C@@H]2C1)C(C)(C)C)C(=O)O , what is its reported AUC?
13.1 µM·h

----------
experiment: Half life in dog microsomes; format: ADME, Canis lupus familiaris, Microsome
Property label: half-life

Item under review: CC[C@@H]1C[C@]1(NC(=O)[C@@H]1C[C@@H](Oc2cc(-c3csc(NC(C)C)n3)nc3c(Cl)c(OCCN4CCOCC4)ccc23)CN1C(=O)[C@@H](NC(=O)O[C@@H]1C[C@@H]2C[C@@H]2C1)C(C)(C)C)C(=O)O . Reported half-life?
> 6.58 h

----------
experiment: Thermodynamic solubility of the compound at pH 7.3; type: physicochemical; settings: buffer, read-out: Therm_solubility
Property label: solubility thermodynamic (µM)
Unit µM implied. Number only.

Smiles representation: CC[C@@H]1C[C@]1(NC(=O)[C@@H]1C[C@@H](Oc2cc(-c3csc(NC(C)C)n3)nc3c(Cl)c(OCCN4CCCCC4)ccc23)CN1C(=O)[C@@H](NC(=O)O[C@@H]1C[C@@H]2C[C@@H]2C1)C(C)(C)C)C(=O)O
Val: 80

Consider the additional molecule presented here.
Request the reported solubility thermodynamic associated with CC[C@@H]1C[C@]1(NC(=O)[C@@H]1C[C@@H](Oc2cc(-c3csc(NC(C)C)n3)nc3c(Cl)c(OC)ccc23)CN1C(=O)[C@@H](NC(=O)O[C@H]1C[C@@H]2[C@H](C1)C2(F)F)C(C)(C)C)C(=O)O
57
